Where do these numbers come from? They come from patent US20220324970A1.

- measurement_target: T1, human pIgR extracellular domain 4-domain 5 (D4-D5) (human, UniProt P01833 350-565)
- T1 construct: HIS-tagged construct made in HEK293 cells; also called hpIgR domains 4-5
- T1 chain: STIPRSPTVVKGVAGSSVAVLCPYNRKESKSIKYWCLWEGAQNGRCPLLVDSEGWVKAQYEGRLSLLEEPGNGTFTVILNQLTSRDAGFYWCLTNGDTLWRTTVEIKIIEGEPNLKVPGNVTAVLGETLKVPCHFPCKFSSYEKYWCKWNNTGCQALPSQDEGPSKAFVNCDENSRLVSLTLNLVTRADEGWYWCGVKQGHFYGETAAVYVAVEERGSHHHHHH
- assay_details: BLI (Octet RED384), 1:1 fit, 25 C, PBS
readout: kon (M⁻¹ s⁻¹)
// note: answer is a bare numeric in M⁻¹ s⁻¹

Entry VHH9-linker-mono-Fc protein (Fc fusion, made in CHO cells; also called VHH9-mono-Fc; hpIgR_221) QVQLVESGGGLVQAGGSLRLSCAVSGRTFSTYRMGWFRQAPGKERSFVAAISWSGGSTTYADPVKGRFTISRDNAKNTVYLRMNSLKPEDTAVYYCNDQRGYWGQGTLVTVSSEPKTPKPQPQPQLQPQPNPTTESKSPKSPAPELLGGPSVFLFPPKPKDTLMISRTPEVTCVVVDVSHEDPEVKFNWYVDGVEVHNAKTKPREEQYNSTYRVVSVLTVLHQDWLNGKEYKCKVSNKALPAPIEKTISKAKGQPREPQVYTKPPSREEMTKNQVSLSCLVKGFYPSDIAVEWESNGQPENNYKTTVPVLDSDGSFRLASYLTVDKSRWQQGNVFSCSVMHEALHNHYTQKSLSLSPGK — recorded kon = 133000
